target_or_test_system: Pyruvate kinase PKM (Homo sapiens, UniProt P14618)
Sequence (P14618 whole entry): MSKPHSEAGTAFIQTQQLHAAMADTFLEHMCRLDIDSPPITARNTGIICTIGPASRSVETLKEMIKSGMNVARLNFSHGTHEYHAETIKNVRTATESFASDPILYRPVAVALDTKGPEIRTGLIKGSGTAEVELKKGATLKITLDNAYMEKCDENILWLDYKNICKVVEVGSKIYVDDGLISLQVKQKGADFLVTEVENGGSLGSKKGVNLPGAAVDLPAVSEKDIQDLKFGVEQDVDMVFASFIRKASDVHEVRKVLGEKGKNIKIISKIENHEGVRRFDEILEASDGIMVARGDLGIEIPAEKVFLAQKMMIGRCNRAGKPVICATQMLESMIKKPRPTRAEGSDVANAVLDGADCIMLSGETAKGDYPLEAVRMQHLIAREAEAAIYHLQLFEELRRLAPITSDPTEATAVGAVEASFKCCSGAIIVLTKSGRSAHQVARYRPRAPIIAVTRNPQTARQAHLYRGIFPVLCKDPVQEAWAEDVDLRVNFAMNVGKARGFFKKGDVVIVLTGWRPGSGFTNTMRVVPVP
assay_name: Activation of N-terminal His -tagged human PKM2 expressed in Escherichia coli BL21 using PEP as substrate measured at 30 secs intervals for between 3 and 6 mins by fluorescent pyruvate kinase-lactate dehydrogenase coupled assay
property_label: AC50

Solved cases (3 shown):
> print(dat)
                                   compound  assay.value
1  O=S(=O)(Nc1ccc(C2(O)CSC(=S)N2Cc2cccnc2)cc1)c1cccs1 (centres undefined)      1.47 µM
2  O=[N+]([O-])c1cccc(-c2ccccc2S(=O)(=O)Nc2ccc(C3(O)CSC(=S)N3Cc3cccnc3)cc2)c1 (centres undefined)      > 20 µM
3  N#Cc1ccc(S(=O)(=O)Nc2ccc(C3(O)CSC(=S)N3Cc3cccnc3)cc2)cc1 (centres undefined)      > 20 µM

## Task GET /values?readout=AC50&item= O=S(=O)(Nc1ccc(C2(O)CSC(=S)N2Cc2cccnc2)cc1)c1ccccc1-c1ccccc1 (centres undefined)
## Result > 20 µM

## Task Dear colleague, I am looking for the recorded AC50 of the following compound: O=C1CCc2cc(S(=O)(=O)Nc3ccc(C4(O)CSC(=S)N4Cc4cccnc4)cc3)ccc2N1 (centres undefined)
## Result 0.74 µM

## Task Fill in the blank: the reported AC50 of O=S(=O)(Nc1ccc(C2(O)CSC(=S)N2Cc2cccnc2)cc1)c1cccc2ccccc12 (centres undefined) is ____.
## Result > 20 µM

## Task Please report the recorded AC50 for O=S(=O)(Nc1ccc(-c2csc(=S)n2Cc2cccnc2)cc1)c1cccc2cccnc12 .
## Result > 20 µM

## Task # get_value(readout='AC50', item= CN(c1ccc(C2(O)CSC(=S)N2Cc2cccnc2)cc1)S(=O)(=O)c1cccc2cccnc12 (centres undefined) )
## Result > 20 µM

## Task Suppose we examine the compound O=S(=O)(Nc1ccc(C2(O)CSC(=S)N2Cc2cccnc2)cc1)c1ccccc1N1CCOCC1 (centres undefined) ; what AC50 value has been reported?
## Result > 20 µM

## Task Please give the measured AC50 for this compound: O=S(=O)(Nc1ccc(C2(O)CSC(=S)N2Cc2ccncc2)cc1)c1ccc2c(c1)OCCO2 (centres undefined)
## Result > 20 µM

## Task I have this compound here, CS(=O)(=O)Nc1ccc(C2(O)CSC(=S)N2Cc2cccnc2)cc1 (centres undefined) , and I need its recorded AC50.
## Result > 20 µM

## Task Which AC50 is reported for this compound? O=[N+]([O-])c1ccc(S(=O)(=O)Nc2ccc(C3(O)CSC(=S)N3Cc3cccnc3)cc2)cc1 (centres undefined)
## Result > 20 µM

## Task # get_value(readout='AC50', item= O=S(=O)(Nc1ccc(C2(O)CSC(=S)N2Cc2cccnc2)cc1)c1ccc(F)cc1 (centres undefined) )
## Result > 20 µM
